This collection of values is drawn from patent US20250092017A1.

biological target: Ba/F3-FL-EGFR (Homo sapiens, UniProt P00533); construct: FL read as full length; assay: CellTiter-Glo proliferation, Ba/F3-FL-EGFR; type: cell-based; conditions: 72 hours, read-out: Ba/F3-FL-EGFR IC50/nM
Sequence (P00533 whole entry, change not shown): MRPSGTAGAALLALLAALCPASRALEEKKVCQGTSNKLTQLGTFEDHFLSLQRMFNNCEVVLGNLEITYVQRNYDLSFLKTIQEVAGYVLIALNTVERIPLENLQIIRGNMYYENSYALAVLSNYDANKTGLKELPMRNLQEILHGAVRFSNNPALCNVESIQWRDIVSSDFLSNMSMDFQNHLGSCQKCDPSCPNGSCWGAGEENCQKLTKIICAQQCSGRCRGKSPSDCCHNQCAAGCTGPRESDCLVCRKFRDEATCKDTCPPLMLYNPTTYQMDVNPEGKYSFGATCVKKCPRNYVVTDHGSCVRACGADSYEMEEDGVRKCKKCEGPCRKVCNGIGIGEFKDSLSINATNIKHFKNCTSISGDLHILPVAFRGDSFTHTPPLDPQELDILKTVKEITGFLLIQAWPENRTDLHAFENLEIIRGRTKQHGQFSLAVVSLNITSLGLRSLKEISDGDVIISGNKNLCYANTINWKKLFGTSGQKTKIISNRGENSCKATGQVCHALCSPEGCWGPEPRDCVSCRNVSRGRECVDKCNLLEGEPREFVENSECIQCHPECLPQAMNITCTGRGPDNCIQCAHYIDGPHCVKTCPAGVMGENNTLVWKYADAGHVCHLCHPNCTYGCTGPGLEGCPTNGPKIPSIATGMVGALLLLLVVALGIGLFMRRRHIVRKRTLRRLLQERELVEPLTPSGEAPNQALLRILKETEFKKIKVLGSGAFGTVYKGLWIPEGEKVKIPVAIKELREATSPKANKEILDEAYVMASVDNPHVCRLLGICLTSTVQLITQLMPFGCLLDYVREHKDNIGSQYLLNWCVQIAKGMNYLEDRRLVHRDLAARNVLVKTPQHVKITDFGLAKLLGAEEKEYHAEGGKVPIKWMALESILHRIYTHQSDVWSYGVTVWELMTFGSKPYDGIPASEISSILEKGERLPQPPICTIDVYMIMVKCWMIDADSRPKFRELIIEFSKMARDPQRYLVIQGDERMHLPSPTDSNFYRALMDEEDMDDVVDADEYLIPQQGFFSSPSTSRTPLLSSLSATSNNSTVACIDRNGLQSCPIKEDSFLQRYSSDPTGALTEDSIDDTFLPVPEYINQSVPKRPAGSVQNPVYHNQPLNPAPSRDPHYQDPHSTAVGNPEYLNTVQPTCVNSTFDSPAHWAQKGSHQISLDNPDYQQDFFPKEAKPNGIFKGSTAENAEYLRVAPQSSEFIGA
Answer each item with its documented GI50.
Answer format: numeric, nM implied, no suffix.

Documented GI50 of CC(C)c1ccc(N2CC(N3CCCS3(=O)=O)C2)c2cnc(Nc3ccnc(N4CCC(O)C(F)C4)n3)cc12 (stereo not drawn) : 903

Documented GI50 of CC(C)c1ccc(N2C[C@H](CS(C)(=O)=O)[C@H]2C)c2cnc(Nc3ccnc(-c4cnn(S(=O)(=O)C5CC5)c4)n3)cc12 : 209

Documented GI50 of CC(C)c1ccc(N2CC(NS(C)(=O)=O)C2)c2cnc(Nc3ccnc(N4CCC(O)C(F)(F)C4)n3)cc12 (stereo not drawn) : 2340
